apparent KD of MS2 coat protein by entry:
- Test system: MS2 coat protein
- Test description: apparent KD of MS2 coat protein; designed switch direction (-1 OFF switch, 1 ON switch): 1; higher = weaker reporter binding
- Measurement setup: input ligand: microRNA oligo, concentration not stated
Response body: numeric value in nM, unit text excluded.

Known results for sequences:
Sequence record	Unit name	Reported
UGUACCUUCAUAGGAUAUCAUGCGAAAAUUGCGUGAGAAGGGUGAAUACUGUCUUUCUAAGAGUACAUGAGGAUCACCCAUGUA [SameState NG1 #62] (Eterna round: R96, puzzle: Same State NG 1)	nM	133
AUAGUUGCCGAAGGAUAUGAUGAGGAUCACCCAUCAGAAGGUCGGCUAUUGGGUGGAUAUGAGGAUCACCCGUGUUCUUUGGUC (Eterna round: R96, puzzle: Same State NG 1)	nM	16.7
AUUAUACAUGAGGAUCACCCAUGUAAUUAAUUAAUUAAGAUCAAGGAUAUCAGCUCGUUUAGAGCUGAGAAGGUGAUCACAUGU [SSNG3/20-B3] (Eterna round: R96, puzzle: Same State NG 3)	nM	147
UUGAGAAAUUAAGGAUAUUGAGUACAUAUGUUUAACAUGAGGAUCACCCAUGUGGGUUGCGGUAUCGAGAAGGUAAAUUACUAG [Mat - same State NG 2 - JL mod - D72] (Eterna round: R96, puzzle: Same State NG 2)	nM	64.7
GGAGCCGGCCUAGGAUAUUUCAUAUAAUAACAUGAGGAUCACCCAUGUAGGCCAGAAGGCCUUGGGAAGAAGGAGGUCGGCUCC [Loop Effect - U25,U28] (Eterna round: R96, puzzle: Same State NG 2)	nM	39.1

For this sequence ( GUUACAUGAGGAUCACCCAUGUAUGUGUGGGAGUAAGUGUCUUAGGAUAUCUAUGAUUGAAUUUAAGAGAAGGAAGAUUGUUGU [JMF's solution 77] (Eterna round: R96, puzzle: Same State NG 3) ), measured apparent KD of MS2 coat protein is 83.8

For this sequence ( CUGCUCGUGUGAGGAUAUGCCGCCGUUUCGGCUGCAGAAGGUGCUACGUUACAUGAGGAUCACCCAUGUCUCUGUUGUUUCGUC [salish99_SSNG1_r04_946] (Eterna round: R96, puzzle: Same State NG 1) ), measured apparent KD of MS2 coat protein is 18.7

For this sequence ( GUUAGGAAUCUAGCGAACAUGAGGAUCACCCAUGUUAGUGGGAAGGAUAUGGUACAGAAACUGUACCAGAAGGUCUUAUUGUUU [Omei SS(NG) 3 AV11] (Eterna round: R96, puzzle: Same State NG 3) ), measured apparent KD of MS2 coat protein is 332

For this sequence ( GCUACGGACGUAGGAUAUGUAGGAUAUGGCGAGAGCUAAGCUUGGAAGUCACUUCAGCCAGAAGGACAGAAGGACGCCGUGAGG [pwkr ssNG2 2FMN + F9.17] (Eterna round: R96, puzzle: Same State NG 2) ), measured apparent KD of MS2 coat protein is 1.34

For this sequence ( UGGUACAUGGGAGGAUAUGGAGUGAAGACAUGAGGAUCACCCAUGUUAUAAAAGCCGAGAGGCAACUAGAAGGCCCAUGUACCU [JL SSNG1 3.93] (Eterna round: R96, puzzle: Same State NG 2) ), measured apparent KD of MS2 coat protein is 37

For this sequence ( GUGGUCAGACAUGAGGAUCACCCAUGUGGAAUAAAUAACGUCAAGGAUAUACAAUAUAGGAUAUAGUAGAAGGUGAGAUUGGUG (Eterna round: R96, puzzle: Same State NG 3) ), measured apparent KD of MS2 coat protein is 94.8
